Give measured composite z-score for each item. Keep answers brief.
- Test system: Neuregulin-1 EGF-like domain
- protocol: binders of neuregulin-1 EGF-like domain, primary screen, biochemical, small-molecule microarray, 635 nm fluorescence (AID 1081);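 also: binding of the protein to compounds printed on small-molecule microarray slides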
- setup.conditions: small-molecule microarray binding, higher = more signal
Answers are plain numbers.

Known results for compounds:
- compound: "CC1CC/C=C\\[C@H]2OC34C=CCN(C(C)(C)C)C(=O)[C@H]3N(C(CO)C(C)C)C(=O)[C@@H]4C2C(=O)O1 (some centres not stated)"
  experimental.target: "Neuregulin-1 EGF-like domain"
  composite z-score: 1.5
- compound: "CN1C(=O)C2C(C1=O)C1C=C(CCCO)C2C(c2cccs2)N1Cc1cc2c(cc1Br)OCO2 (configuration not stated)"
  experimental.target: "Neuregulin-1 EGF-like domain"
  composite z-score: 1.28
- compound: "O=C1C2C=CC(C(O)c3ccc(I)cc3)N(Nc3ccccc3)C2C(=O)N1c1ccccc1 (configuration not stated)"
  experimental.target: "Neuregulin-1 EGF-like domain"
  composite z-score: 1.22
- compound: "COc1cc2c(cc1OC)CN(C(=O)[C@@H]1[C@H]3C(=O)O[C@H](c4ccccc4)[C@H](c4ccccc4)N3[C@H](c3ccc(O)cc3)[C@@]13C(=O)Nc1ccc(C#CCCO)cc13)CC2"
  experimental.target: "Neuregulin-1 EGF-like domain"
  composite z-score: 1.17
- compound: "COC(=O)[C@@]1(Cc2ccc(F)cc2)[C@H]2c3cc(C(=O)N(C)C)n(Cc4c(CO)[nH]cc(C)c4=O)c3C[C@H]2CN1C(=O)c1ccccc1"
  experimental.target: "Neuregulin-1 EGF-like domain"
  composite z-score: 1.15

Please give composite z-score for each item listed below.
1. O=C(NCCN1CCOCC1)[C@@H]1c2ccccc2C(=O)N(Cc2ccccc2)[C@H]1c1ccc(CO)cc1
2. C=CCC(OC(C)=O)[C@@H]1[C@@H](N(Cc2cccc3ccccc23)C(=O)Cc2ccc(F)cc2)c2cc(OCCCO)ccc2N1C(=O)c1ccc(-c2ccccc2)cc1 (some centres not stated)

1: 1.1; 2: -0.802

====

Consider the following molecules; for each one, report its z-score.
- protocol: cell viability in Huh7 cells, primary screen, cytotoxicity control for HCV replication inhibitor project, CellTiter-Glo luminescence, basal, 48 h (AID 1143);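 also: Huh7 hepatoma cells carrying a hepatitis C replication reporter with no stimulus; test concentration not given here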
- setup.conditions: Huh7 HCV replicon, higher = more signal, called active from +8 up or from −8 down
Active and inactive are the calls of the source.

Example entries begin here.
- molecule: "C=CCC(OC(C)=O)[C@@H]1[C@@H](N(Cc2ccc(-c3ccccc3)cc2)C(=O)c2ccc(C)cc2)c2cc(OCCCO)ccc2N1C(=O)Cc1ccc2ccccc2c1 (stereo not given in full)"
  z-score: "-0.889 (inactive)"
- molecule: "[N-]=[N+]=NCc1ccccc1C[C@@]1(C(=O)N2CCCCC2)N=C(c2ccc(OCCCO)cc2)O[C@@H]1c1ccccc1CN=[N+]=[N-]"
  z-score: "-4.29 (inactive)"
- molecule: "[N-]=[N+]=NCc1ccccc1C[C@]1(C(=O)N2CCOCC2)COC(c2ccc(OCCCO)cc2)=N1"
  z-score: "-3.07 (inactive)"

Dear colleague, could you please provide z-score for the molecules listed below?
1. O=C(O)[C@H]1C[C@H]2C(=O)N[C@@H](Cc3ccccc3)C(=O)N2[C@H]1c1cccc(OCCO)c1
2. COC(=O)[C@@]1(Cc2ccc(F)cc2)[C@H]2c3cc(C(=O)N4CCCC4)n(CC4CC4)c3C[C@H]2CN1C(=O)c1ccccc1
3. Cc1ccc(S[C@]2(C(=O)NCc3ccccc3)CC(=O)N(Cc3cc(C(F)(F)F)cc(C(F)(F)F)c3)[C@@H]2c2ccc(CO)cc2I)cc1
4. COCCOC(=O)N1C(=O)[C@@]2(c3cc(C#CCC(C(=O)OC)C(=O)OC)ccc31)[C@H](C(=O)NC[C@H](O)c1ccccc1)[C@H]1C(=O)O[C@H](c3ccccc3)[C@H](c3ccccc3)N1[C@@H]2c1ccc(O)cc1
5. C=CCC(OC(C)=O)[C@@H]1[C@@H](N(Cc2cccc3ccccc23)C(=O)c2cccc3ccccc23)c2cc(OCCCO)ccc2N1C(=O)c1ccc2ccccc2c1 (stereo not given in full)

-0.6 (inactive)
-2.61 (inactive)
-1.24 (inactive)
-1.1 (inactive)
-2.35 (inactive)

Okay, here is my list. What is z-score for each of these?
1. C=C(C(=O)CC[C@H](OC(=O)c1ccccc1-c1ccccc1C(=O)O)c1ccccc1OCCO)C(C)C
2. [N-]=[N+]=Nc1ccccc1C[C@]1(C(=O)NCc2ccccc2)COC(c2ccc(OCCCO)cc2)=N1
3. Cc1c(NC(=O)/C(C#N)=C/c2ccccc2Cl)c(=O)n(-c2ccccc2)n1C
4. COCC(=C=CC[C@H](O)c1cccc(OCCO)c1)C[C@H](O)COCc1ccccc1
5. O=C1C2C=CC(C(O)c3cccc(O)c3)N(Nc3ccccc3)C2C(=O)N1c1ccccc1 (stereo not given)
6. CCOC(=O)C=Cc1cc(F)ccc1O

["-0.594 (inactive)", "-4.89 (inactive)", "-2.11 (inactive)", "-0.33 (inactive)", "-2.93 (inactive)", "-4.58 (inactive)"]

What value of z-score has been recorded for this entry: CC(C)CNC(=O)[C@@H]1c2ccccc2C(=O)N(C2CCCCC2)[C@H]1c1ccc(CO)cc1 -2.94 (inactive)

====

- Tested on: Fibrinogen (Alexa647-labelled)
- protocol: fibrinogen binders on compound microarrays, profiling panel, artefact control for SMM control-protein annotation, biochemical, small-molecule microarray, 635/667 nm fluorescence (AID 1131);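 also: z-score merges 667 nm fluorescence with per-spot signal-to-noise over triplicate slides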
- setup.conditions: fibrinogen-A647 binding fluorescence, higher = more signal
measure: composite z-score
Give bare numbers.

For orientation, consider the following solved cases.
- molecule: "CC1(C)C(=O)C(c2ccccc2)=C2CN3C(=O)N(CCc4ccccc4)C(=O)C3(Cc3ccc(F)cc3)C=C21 (stereo unspecified)"
  experimental.target: "Fibrinogen (Alexa647-labelled)"
  value.observed: -0.402
- molecule: "CCCCCCCCCCC(O)C1C=CC2C(=O)N(C)C(=O)C2N1Nc1cc(OC)c(OC)c(OC)c1 (stereo unspecified)"
  experimental.target: "Fibrinogen (Alexa647-labelled)"
  value.observed: -0.203
- molecule: "CCCCCN1CC=CC23O[C@@H]4/C=C\\CCC(C)OC(=O)C4[C@H]2C(=O)N(CCCCCCO)[C@@H]3C1=O (stereo partly specified)"
  experimental.target: "Fibrinogen (Alexa647-labelled)"
  value.observed: -1.31
- molecule: "O=C1O[C@H](c2ccccc2)[C@H](c2ccccc2)N2[C@H]1[C@@H](C(=O)O)[C@]1(C(=O)Nc3ccc(C#CC4(O)CCCCCC4)cc31)[C@H]2c1ccc(O)cc1"
  experimental.target: "Fibrinogen (Alexa647-labelled)"
  value.observed: -0.132
- molecule: "CCOC(=O)C[C@H]1[C@H](OC(=O)c2ccc(C(=O)c3ccccc3)cc2)[C@@H](NC(=O)CC(C)C)c2cc(OCCCO)ccc2N1C(=O)Cc1ccc(OC)cc1"
  experimental.target: "Fibrinogen (Alexa647-labelled)"
  value.observed: 0.286

Alright, here's another molecule for you.
Requested field: composite z-score. Item: C=C[C@H](C)[C@H](OC(=O)Nc1ccc(OC)cc1)c1ccc(OCCO)cc1 -0.909

====

I'd be grateful if you could share measured z-score for these entries.
- protocol: HepG2 liver cancer cell viability effects, profiling panel, resazurin fluorescence, 24 h, PK04 Diversity Set (AID 1172); also: test concentration not given here
- setup.conditions: higher = more signal
Answers are plain numbers.

- compound: "COc1ccc(NC(=O)O[C@H]2[C@@H]3OC(=O)[C@H](Cc4cccc(Br)c4)C/C=C/C[C@@H](Cc4cccc(Br)c4)C(=O)O[C@H]3[C@@H](OC)O[C@@H]2CO)cc1"
  z-score: -0.868
- compound: "CCN(CC)c1ccc(N2CC=CC34O[C@@H]5C=CCCOC(=O)C5[C@H]3C(=O)N(CCO)[C@@H]4C2=O)cc1 (stereo partly specified)"
  z-score: 0.0656
- compound: "O=C1c2ccccc2[C@](Cc2ccccc2I)(C(=O)NC2CC2)[C@H](c2ccc(CO)cc2)N1Cc1ccccc1C(F)(F)F"
  z-score: -0.113
- compound: "COCC1C2CC[C@H]3C(OCc4ccc(OC)cc4)OC[C@]4(C)[C@H]3C2=C(CN4C(=O)OC(C)(C)C)[C@H](C)C1COC (stereo partly specified)"
  z-score: -0.819
- compound: "CCCC=C(CCC)[C@@H](NC(=O)CCc1ccccc1)c1ccc(C(F)(F)F)cc1"
  z-score: 0.561

Record request: z-score value, item CC(C)(C)OC(=O)CC[C@]1(C(=O)N2CCCCC2)COC(c2ccc(OCCCO)cc2)=N1 2.29

====

- protocol: cell viability in Huh7 cells, primary screen, cytotoxicity control for HCV replication inhibitor project, CellTiter-Glo luminescence, basal, 48 h (AID 1143);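 also: Huh7 hepatoma cells carrying a hepatitis C replication reporter with no stimulus; test concentration not given here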
- setup.conditions: Huh7 HCV replicon, higher = more signal, called active from +8 up or from −8 down
For each entry below, report its z-score value.
Numbers only.

- structure.smiles.string: "C=C[C@@H](OC)[C@H](OC(=O)Nc1ccc(OC)cc1)c1ccc(OC)c(O)c1"
  z-score: -0.749

Look up z-score for the entries below, preserving their order.
1. CC(C)[Si]1(C(C)C)OCc2cc(-c3ccc(-c4ccc(Cl)c(Cl)c4)o3)nc(CCc3ccccc3)c21
2. CN(C)C(=O)[C@@]1(CCC(=O)OC(C)(C)C)N=C(c2ccc(OCCCO)cc2)O[C@H]1c1ccccc1CN=[N+]=[N-]
3. CO[C@H]1O[C@H](CO)[C@@H](OC(=O)Nc2ccc(C#N)cc2)[C@@H]2OC(=O)[C@H](Cc3cccc(Br)c3)C/C=C/C[C@@H](Cc3cccc(Br)c3)C(=O)O[C@@H]12
4. CCCNC(=O)[C@@]1(Sc2ccc(C)cc2)CC(=O)N(C(C)C)[C@@H]1c1ccc(CO)cc1I

-1.53
-0.292
-3.82
-1.07
